% from freshly processed samples (n=2) by entry:
settings: human, 6 h, 2 ng/mL
Number only, in %; omit the unit.

Would you please look over these solved cases?
>>> df
                                   compound                            assay_metric  unit_text  recorded_value
0  O=C(C1CCCCC1)N1CCN(c2nc(=O)c3cc(C(F)(F)F)cc([N+](=O)[O-])c3s2)CC1  % from freshly processed samples (n=2)          %              -6
1  O=c1nc(N2CCN(CC3CCCCC3O)CC2)sc2c([N+](=O)[O-])cc(C(F)(F)F)cc12 (stereo not drawn)  % from freshly processed samples (n=2)          %              -6
2  O=C1CCCC(CN2CCN(c3nc(=O)c4cc(C(F)(F)F)cc([N+](=O)[O-])c4s3)CC2)C1 (stereo not drawn)  % from freshly processed samples (n=2)          %             -10
3  O=c1nc(N2CCN(CC3CCCCC3)CC2)sc2c([N+](=O)[O-])cc(C(F)(F)F)cc12  % from freshly processed samples (n=2)          %              -3
4  O=c1nc(N2CCN(CC3CCCC(O)C3)CC2)sc2c([N+](=O)[O-])cc(C(F)(F)F)cc12 (stereo not drawn)  % from freshly processed samples (n=2)          %             -10

Request: // fetch % from freshly processed samples (n=2) given entry O=c1nc(N2CCN(CC3(O)CCCCC3)CC2)sc2c([N+](=O)[O-])cc(C(F)(F)F)cc12
Response: -4

###

conditions: human, 1 h, 500 ng/mL
% from t0 by entry:
Number only, in %; omit the unit.

Request: // fetch % from t0 given entry O=C1CCCC(CN2CCN(c3nc(=O)c4cc(C(F)(F)F)cc([N+](=O)[O-])c4s3)CC2)C1 (stereo not drawn)
Response: -22

Request: // fetch % from t0 given entry O=c1nc(N2CCN(CC3(O)CCCCC3)CC2)sc2c([N+](=O)[O-])cc(C(F)(F)F)cc12
Response: -4

Request: // fetch % from t0 given entry O=c1nc(N2CCN(CC3CCCCC3O)CC2)sc2c([N+](=O)[O-])cc(C(F)(F)F)cc12 (stereo not drawn)
Response: -9

Request: // fetch % from t0 given entry O=C(C1CCCCC1)N1CCN(c2nc(=O)c3cc(C(F)(F)F)cc([N+](=O)[O-])c3s2)CC1
Response: -5

Request: // fetch % from t0 given entry O=c1nc(N2CCN(CC3CCCC(O)C3)CC2)sc2c([N+](=O)[O-])cc(C(F)(F)F)cc12 (stereo not drawn)
Response: 8

Request: // fetch % from t0 given entry O=c1nc(N2CCN(CC3CCCCC3)CC2)sc2c([N+](=O)[O-])cc(C(F)(F)F)cc12
Response: 0

###

% from t0 by entry:
settings: human, 4 h, 50 ng/mL
Number only, in %; omit the unit.

Would you please look over these solved cases?
>>> print(df.to_string())
                                   molecule  recorded_value
0  O=c1nc(N2CCN(CC3CCCCC3O)CC2)sc2c([N+](=O)[O-])cc(C(F)(F)F)cc12 (stereo not drawn)             -30
1  O=C(C1CCCCC1)N1CCN(c2nc(=O)c3cc(C(F)(F)F)cc([N+](=O)[O-])c3s2)CC1              -6
2  O=C1CCCC(CN2CCN(c3nc(=O)c4cc(C(F)(F)F)cc([N+](=O)[O-])c4s3)CC2)C1 (stereo not drawn)             -51

Request: // fetch % from t0 given entry O=c1nc(N2CCN(CC3CCCC(O)C3)CC2)sc2c([N+](=O)[O-])cc(C(F)(F)F)cc12 (stereo not drawn)
Response: 15

Request: // fetch % from t0 given entry O=c1nc(N2CCN(CC3CCCCC3)CC2)sc2c([N+](=O)[O-])cc(C(F)(F)F)cc12
Response: -7

Request: // fetch % from t0 given entry O=c1nc(N2CCN(CC3(O)CCCCC3)CC2)sc2c([N+](=O)[O-])cc(C(F)(F)F)cc12
Response: -9

###

settings: human, 2 h, 10 ng/mL
assay.metric: % from t0 (%)
Number only, in %; omit the unit.

Would you please look over these solved cases?
>>> df
                                   compound  unit_text  recorded_value
0  O=c1nc(N2CCN(CC3CCCC(O)C3)CC2)sc2c([N+](=O)[O-])cc(C(F)(F)F)cc12 (stereo not drawn)          %               7
1  O=C1CCCC(CN2CCN(c3nc(=O)c4cc(C(F)(F)F)cc([N+](=O)[O-])c4s3)CC2)C1 (stereo not drawn)          %              -5
2  O=C(C1CCCCC1)N1CCN(c2nc(=O)c3cc(C(F)(F)F)cc([N+](=O)[O-])c3s2)CC1          %              -3
3  O=c1nc(N2CCN(CC3CCCCC3)CC2)sc2c([N+](=O)[O-])cc(C(F)(F)F)cc12          %               0
4  O=c1nc(N2CCN(CC3CCCCC3O)CC2)sc2c([N+](=O)[O-])cc(C(F)(F)F)cc12 (stereo not drawn)          %              -1

Request: // fetch % from t0 given entry O=c1nc(N2CCN(CC3(O)CCCCC3)CC2)sc2c([N+](=O)[O-])cc(C(F)(F)F)cc12
Response: 1

###

conditions: human, 1 h, 200 ng/mL
assay.metric: % from t0 (%)
Number only, in %; omit the unit.

Would you please look over these solved cases?
>>> print(df.to_string())
                                   compound  unit_text  recorded_value
0  O=c1nc(N2CCN(CC3CCCC(O)C3)CC2)sc2c([N+](=O)[O-])cc(C(F)(F)F)cc12 (stereo not drawn) [Met 3-OH]          %               5
1  O=C1CCCC(CN2CCN(c3nc(=O)c4cc(C(F)(F)F)cc([N+](=O)[O-])c4s3)CC2)C1 (stereo not drawn) [Met 3-oxo]          %              -9

Request: // fetch % from t0 given entry O=c1nc(N2CCN(CC3CCCCC3)CC2)sc2c([N+](=O)[O-])cc(C(F)(F)F)cc12 [PBTZ169, macozinone]
Response: 1

Request: // fetch % from t0 given entry O=c1nc(N2CCN(CC3(O)CCCCC3)CC2)sc2c([N+](=O)[O-])cc(C(F)(F)F)cc12 [Met 1-OH]
Response: -1

Request: // fetch % from t0 given entry O=c1nc(N2CCN(CC3CCCCC3O)CC2)sc2c([N+](=O)[O-])cc(C(F)(F)F)cc12 (stereo not drawn) [Met 2-OH]
Response: -2

Request: // fetch % from t0 given entry O=C(C1CCCCC1)N1CCN(c2nc(=O)c3cc(C(F)(F)F)cc([N+](=O)[O-])c3s2)CC1 [Met oxo]
Response: 0

###

conditions: processed extract sample, RT, 24h, level M (QC 150 ng/mL)
assay.metric: % from t0 (%)
Number only, in %; omit the unit.

Would you please look over these solved cases?
>>> df
                                   compound  unit_text  recorded_value
0  O=c1nc(N2CCN(CC3CCCCC3)CC2)sc2c([N+](=O)[O-])cc(C(F)(F)F)cc12          %               2
1  O=C1CCCC(CN2CCN(c3nc(=O)c4cc(C(F)(F)F)cc([N+](=O)[O-])c4s3)CC2)C1 (stereo not drawn)          %             -37
2  O=C(C1CCCCC1)N1CCN(c2nc(=O)c3cc(C(F)(F)F)cc([N+](=O)[O-])c3s2)CC1          %              29
3  O=c1nc(N2CCN(CC3CCCC(O)C3)CC2)sc2c([N+](=O)[O-])cc(C(F)(F)F)cc12 (stereo not drawn)          %             -36
4  O=c1nc(N2CCN(CC3CCCCC3O)CC2)sc2c([N+](=O)[O-])cc(C(F)(F)F)cc12 (stereo not drawn)          %             -39

Moving on to the next compound.
Request: // fetch % from t0 given entry O=c1nc(N2CCN(CC3(O)CCCCC3)CC2)sc2c([N+](=O)[O-])cc(C(F)(F)F)cc12
Response: -33
